# ASSAY NOTES: Artificial membrane permeability assay
# Assay type: in vitro ADME
# SETTINGS: PAMPA, pH 7.4; Table 1; read-out: Artificial membrane permeability
Non-standard residues stand in square brackets, D forms with d. Residues, ends and D or L forms follow the SMILES beside them. dOrn = NCCC[C@@H](N)C(=O)O
MEASURED PROPERTY: Papp at 3 h

Lab book: Papp at 3 h of CC(C)C[C@@H]1NC(=O)[C@H](Cc2c[nH]c3ccccc23)NC(=O)[C@@H](CCCN)NC(=O)[C@H](CC(N)=O)NC(=O)[C@H](C(C)C)NC(=O)[C@@H](CC(C)C)NC1=O [Compound 1c, wollamide B] (cyclo([dOrn]WL[dL]VN)) noted as < 0.3 ×10⁻⁶ cm/s
